# test: Dynamic surface tension of aqueous solutions, maximum bubble pressure method
# Assay type: physicochemical
# test_settings: water, 25° C., 1 b/s
measured_endpoint: limiting γ (1 b/s) (Dyne/cm)

CC(C)OC(=O)C[C@H](O)C(=O)OC(C)C [Example 1, Diisopropyl-(S)-(−)-malate]
33.8
CC(C)COC(=O)CC(O)C(=O)OCC(C)C (racemic) [Example 3, Diisobutyl-DL-malate]
33.3
CC(C)CC(C)OC(=O)CC(O)C(=O)OC(C)CC(C)C (racemic) [Example 9, Di(4-methyl-2-pentyl)-DL-malate]
50.9
CC(C)CCOC(=O)CC(O)C(=O)OCCC(C)C (racemic) [Example 6, Diisoamyl-DL-malate]
36.8
CCC(C)COC(=O)CC(O)C(=O)OCC(C)CC (racemic) [Example 7, Di(2-methylbutyl)-DL-malate]
38.9

A: CCC(C)OC(=O)CC(O)C(=O)OC(C)CC (racemic) [Example 4, Di-sec-butyl-DL-malate]
B: O=C(CC(O)C(=O)OCc1ccccc1)OCc1ccccc1 (racemic) [Example 10, Dibenzyl-DL-malate]
[in] Task for the reader: decide whether A or B has the larger limiting γ (1 b/s). Kindly give the label for the entry you pick.
[out] B

I: CCCCOC(=O)CC(O)C(=O)OCCCC (racemic) [Example 2, Dibutyl-DL-malate]
II: CCCCCCOC(=O)CC(O)C(=O)OCCCCCC (racemic) [Example 8, Dihexyl-DL-malate]
[in] Task for the reader: decide whether I or II has the larger limiting γ (1 b/s). Kindly give the label for the entry you pick.
[out] II

* * *

# test: Dynamic surface tension of aqueous solutions, maximum bubble pressure method
# Format: physicochemical
# test_settings: 0.1 wt % solution, 25° C., 6 b/s
measured_endpoint: γ(0.1 wt % solution) (6 b/s) (dyne/cm)

Example compounds with recorded γ(0.1 wt % solution) (6 b/s):
CC(C)COC(=O)CC(O)C(=O)OCC(C)C (racemic) [Example 3, Diisobutyl-DL-malate]
45.2
CC(C)CCOC(=O)CC(O)C(=O)OCCC(C)C (racemic) [Example 6, Diisoamyl-DL-malate]
39.5
CCC(C)OC(=O)CC(O)C(=O)OC(C)CC (racemic) [Example 4, Di-sec-butyl-DL-malate]
48.5

1: CCC(C)COC(=O)CC(O)C(=O)OCC(C)CC (racemic) [Example 7, Di(2-methylbutyl)-DL-malate]
2: CC(C)OC(=O)C[C@H](O)C(=O)OC(C)C [Example 1, Diisopropyl-(S)-(−)-malate]
[in] Task for the reader: decide whether 1 or 2 has the larger γ(0.1 wt % solution) (6 b/s). Kindly give the label for the entry you pick.
[out] 2

* * *

# test: Dynamic surface tension of aqueous solutions, maximum bubble pressure method
# Type: physicochemical
# test_settings: water, 25° C., 0.1 b/s
measured_endpoint: limiting γ (0.1 b/s) (Dyne/cm)

CC(C)CC(C)OC(=O)CC(O)C(=O)OC(C)CC(C)C (racemic) [Example 9, Di(4-methyl-2-pentyl)-DL-malate]
40.8
CC(C)OC(=O)C[C@H](O)C(=O)OC(C)C [Example 1, Diisopropyl-(S)-(−)-malate]
33.6
O=C(CC(O)C(=O)OCc1ccccc1)OCc1ccccc1 (racemic) [Example 10, Dibenzyl-DL-malate]
54.0

P: CCCCCCOC(=O)CC(O)C(=O)OCCCCCC (racemic) [Example 8, Dihexyl-DL-malate]
Q: CCC(C)OC(=O)CC(O)C(=O)OC(C)CC (racemic) [Example 4, Di-sec-butyl-DL-malate]
[in] Task for the reader: decide whether P or Q has the larger limiting γ (0.1 b/s). Kindly give the label for the entry you pick.
[out] P

* * *

# test: Foam test of 0.1 wt % solutions, procedure based upon ASTM D 1173-53
# Type: physicochemical
# test_settings: 0.1 wt % solution
measured_endpoint: initial foam (cm)

CCC(C)OC(=O)CC(O)C(=O)OC(C)CC (racemic) [Example 4, Di-sec-butyl-DL-malate]
1.0

I: CCC(C)COC(=O)CC(O)C(=O)OCC(C)CC (racemic) [Example 7, Di(2-methylbutyl)-DL-malate]
II: CC(C)CC(C)OC(=O)CC(O)C(=O)OC(C)CC(C)C (racemic) [Example 9, Di(4-methyl-2-pentyl)-DL-malate]
III: CC(C)COC(=O)CC(O)C(=O)OCC(C)C (racemic) [Example 3, Diisobutyl-DL-malate]
[in] Sort (3 compounds) by initial foam: min first. Ranked list of labels, please, in the requested order.
[out] II, III, I
(II: 0 cm, III: 0.6 cm, I: 1.2 cm)

* * *

# test: Dynamic surface tension of aqueous solutions, maximum bubble pressure method
# Type: physicochemical
# test_settings: water, 25° C., 20 b/s
measured_endpoint: limiting γ (20 b/s) (Dyne/cm)

CCCCCOC(=O)CC(O)C(=O)OCCCCC (racemic) [Example 5, Dipentyl-DL-malate]
50.1
CC(C)CCOC(=O)CC(O)C(=O)OCCC(C)C (racemic) [Example 6, Diisoamyl-DL-malate]
48.0
CCC(C)OC(=O)CC(O)C(=O)OC(C)CC (racemic) [Example 4, Di-sec-butyl-DL-malate]
38.1

* * *

# test: Dynamic surface tension of aqueous solutions, maximum bubble pressure method
# Format: physicochemical
# test_settings: water, 25° C., 6 b/s
measured_endpoint: limiting γ (6 b/s) (Dyne/cm)

Example compounds with recorded limiting γ (6 b/s):
O=C(CC(O)C(=O)OCc1ccccc1)OCc1ccccc1 (racemic) [Example 10, Dibenzyl-DL-malate]
60.3
CCCCCCOC(=O)CC(O)C(=O)OCCCCCC (racemic) [Example 8, Dihexyl-DL-malate]
69.3
CCC(C)OC(=O)CC(O)C(=O)OC(C)CC (racemic) [Example 4, Di-sec-butyl-DL-malate]
37.3
CC(C)OC(=O)C[C@H](O)C(=O)OC(C)C [Example 1, Diisopropyl-(S)-(−)-malate]
34.0

a: CC(C)CC(C)OC(=O)CC(O)C(=O)OC(C)CC(C)C (racemic) [Example 9, Di(4-methyl-2-pentyl)-DL-malate]
b: CC(C)CCOC(=O)CC(O)C(=O)OCCC(C)C (racemic) [Example 6, Diisoamyl-DL-malate]
[in] Task for the reader: decide whether a or b has the larger limiting γ (6 b/s). Kindly give the label for the entry you pick.
[out] a

* * *

# test: Dynamic surface tension of aqueous solutions, maximum bubble pressure method
# Format: physicochemical
# test_settings: 0.1 wt % solution, 25° C., 1 b/s
measured_endpoint: γ(0.1 wt % solution) (1 b/s) (dyne/cm)

O=C(CC(O)C(=O)OCc1ccccc1)OCc1ccccc1 (racemic) [Example 10, Dibenzyl-DL-malate]
61.5
CC(C)COC(=O)CC(O)C(=O)OCC(C)C (racemic) [Example 3, Diisobutyl-DL-malate]
44.1
CCC(C)OC(=O)CC(O)C(=O)OC(C)CC (racemic) [Example 4, Di-sec-butyl-DL-malate]
47.8

I: CCCCCCOC(=O)CC(O)C(=O)OCCCCCC (racemic) [Example 8, Dihexyl-DL-malate]
II: CC(C)CCOC(=O)CC(O)C(=O)OCCC(C)C (racemic) [Example 6, Diisoamyl-DL-malate]
[in] // compare: I vs II , metric γ(0.1 wt % solution) (1 b/s), want the smaller Kindly give the label for the entry you pick.
[out] II

* * *

# test: Foam test of 0.1 wt % solutions, procedure based upon ASTM D 1173-53
# Format: physicochemical
# test_settings: 0.1 wt % solution
# Protocol: The foaming properties of 0.1 wt % solutions of the dialkylmalate surfactants of this invention were examined using a procedure based upon ASTM D 1173-53. In this test, a 0.1 wt % solution of the surfactant is added from an elevated foam pipette to a foam receiver containing the same solution. The foam height is measured at the completion of the addition (“Initial Foam Height”) and the time required for the foam to dissipate at the air-liquid interface (“Time to 0 Foam”) is recorded. […]
measured_endpoint: time to zero foam (s)

CCCCOC(=O)CC(O)C(=O)OCCCC (racemic) [Example 2, Dibutyl-DL-malate]
20

I: CCCCCCOC(=O)CC(O)C(=O)OCCCCCC (racemic) [Example 8, Dihexyl-DL-malate]
II: CC(C)CCOC(=O)CC(O)C(=O)OCCC(C)C (racemic) [Example 6, Diisoamyl-DL-malate]
III: CC(C)OC(=O)C[C@H](O)C(=O)OC(C)C [Example 1, Diisopropyl-(S)-(−)-malate]
IV: CCCCCOC(=O)CC(O)C(=O)OCCCCC (racemic) [Example 5, Dipentyl-DL-malate]
[in] Ordering criterion: time to zero foam; begin with the maximum. Ranked list of labels, please, in the requested order.
[out] III, II, IV, I

* * *

# test: Dynamic surface tension of aqueous solutions, maximum bubble pressure method
# Format: physicochemical
# test_settings: 0.1 wt % solution, 25° C., 6 b/s
measured_endpoint: γ(0.1 wt % solution) (6 b/s) (dyne/cm)

O=C(CC(O)C(=O)OCc1ccccc1)OCc1ccccc1 (racemic) [Example 10, Dibenzyl-DL-malate]
65.2
CCCCCOC(=O)CC(O)C(=O)OCCCCC (racemic) [Example 5, Dipentyl-DL-malate]
40.5
CCCCOC(=O)CC(O)C(=O)OCCCC (racemic) [Example 2, Dibutyl-DL-malate]
44.8
CC(C)CC(C)OC(=O)CC(O)C(=O)OC(C)CC(C)C (racemic) [Example 9, Di(4-methyl-2-pentyl)-DL-malate]
56.4
CCCCCCOC(=O)CC(O)C(=O)OCCCCCC (racemic) [Example 8, Dihexyl-DL-malate]
52.0
